Test: Drug metabolic stability, S9 fraction with NADPH
Assay type: in vitro ADME
readout: half-life (min)
Please respond with the number in min and leave the unit unwritten.

Prompt line: Provide half-life value for the following compound: CN[C@@H](C)C(=O)Nc1ccc(Oc2ccc(OC)cc2)c(C(=O)NCc2csc(-c3cccs3)n2)c1 [Compound 3]
Response line: 14.5
